# System: Plasmodium falciparum NF54 stage IV/V gametocytes
# assay.notes: % inhibition of gametocyte viability (luciferase reporter); higher = more inhibition
# experimental.parameters: 1 µM; 48 h
Label key: criterion met means % inhibition of gametocyte viability under 4%; criterion not met means % inhibition of gametocyte viability of 4% or more.

Illustrative cases are given below, each with its answer.
- input.smiles: "NCCCc1ccccc1C(=O)Nc1ncc([N+](=O)O)s1"
  assigned.label: "criterion met"
- input.smiles: "CCc1nc2ccc(Cl)cn2c1C(=O)NCc1ccc(N2CCC(c3ccc(OC(F)(F)F)cc3)CC2)cc1"
  assigned.label: "criterion not met"
- input.smiles: "Cc1ccc(Oc2ccccc2-c2csc(NC3=NCCCN3)n2)c(C)c1"
  assigned.label: "criterion met"
- input.smiles: "Fc1ccc(-n2cc(Cn3c(-c4cccc(F)c4)nc4ccccc43)nn2)cc1"
  assigned.label: "criterion met"
- input.smiles: "O=C(c1nc2c(C(F)(F)F)cc(C3CC3)cn2c1Cl)N1CCN([C@H]2CC[C@H](O)CC2)C(=O)C1"
  assigned.label: "criterion met"

**Q:** Is % inhibition of gametocyte viability strictly under 4% for the entry OC[C@@H]1CC[C@H](n2cnc3c(O)ncnc32)O1 ?
**A:** criterion met

**Q:** Item: CC1(C)CC(NC(=O)C(=O)Nc2ccc(Cl)cc2)CC(C)(C)N1
**A:** criterion met

**Q:** Item: OCCCCn1cnc2c(O)nc(NCc3ccc(Cl)c(Cl)c3)nc21
**A:** criterion met

**Q:** Item: COc1ccc(NS(=O)(=O)c2ccc(Cl)s2)cn1
**A:** criterion not met

**Q:** Item: CCNC(=O)Nc1cc(-c2ccccc2)c(-c2cncc(C(=O)O)c2)cn1
**A:** criterion met
